property: melting point (°C)

compound="CCOc1ccc2c(c1)C(C)(c1cc(C(=O)N[C@@H]3CCNC3)ccc1Cl)C(=O)N2S(=O)(=O)c1ccc(C(=O)NC(C)(C)C)cc1OC (single isomer, unassigned)" property="melting point" result=216
compound="CCOc1ccc2c(c1)C(C)(c1c(F)cccc1Cl)C(=O)N2S(=O)(=O)c1ccc(C(=O)NC(C)(C)C)cc1 (stereo not drawn)" property="melting point" result=128
compound="CCOc1ccc2c(c1)C(C)(c1cccc(OC)c1)C(=O)N2S(=O)(=O)c1ccc(C(=O)NC(C)(C)C)cc1 (stereo not drawn)" property="melting point" result=101
compound="CCOc1ccc2c(c1)C(C)(c1ccccc1Cl)C(=O)N2S(=O)(=O)c1ccc(C(=O)NC(C)(C)CC)cc1 (stereo not drawn)" property="melting point" result=138
compound="CCOc1ccc2c(c1)C(C)(c1cc(NC(=O)C3CCN(C)CC3)ccc1Cl)C(=O)N2S(=O)(=O)c1ccc(C(=O)NC(C)(C)C)cc1OC (stereo not drawn)" property="melting point" result=180
compound="CCNC(=O)c1ccc(Cl)c(C2(C)C(=O)N(S(=O)(=O)c3ccc(C(=O)NC(C)(C)C)cc3OC)c3ccc(OCC)cc32)c1 (stereo not drawn)" property="melting point" result=176
